// data source = patent US10238670B2

system: K. oxytoca; assay: In vitro MIC, 2010 surveillance isolates; format: cell-based; details: L. Amer; CLSI breakpoints

# compound, readout units, % R (resistance)
records = [
    ("C[C@@H](O)[C@H]1C(=O)N2C(C(=O)O)=C(SCCN=CN)C[C@H]12 [Imipenem]", "%", 4),
    ("CO/N=C(\\C(=O)N[C@@H]1C(=O)N2C(C(=O)O)=C(CSc3nc(=O)c(=O)[nH]n3C)CS[C@H]12)c1csc(N)n1 [Ceftriaxone]", "%", 40),
    ("CN(C)c1cc(NC(=O)CNC(C)(C)C)c(O)c2c1C[C@H]1C[C@H]3[C@H](N(C)C)C(O)=C(C(N)=O)C(=O)[C@@]3(O)C(O)=C1C2=O [Tigecycline]", "%", 0),
]

---

Experiment: Phase 1b study in female adults with cystitis, plasma PK
Type: in vivo, human
Settings: female, human, plasma, oral, 450 mg, plasma, Day 5, PO450; read-out: Cmax, Mean
Procedure: According to the study design, a randomized (1:1:1), open-label, parallel designed Phase 1b study comparing 3 dosing regimens of Compound 1 (9-[(2,2-dimethyl-propyl amino)-methyl-minocycline) in the treatment of female adults with cystitis was conducted. […] Blood samples were collected and analyzed for Compound 1 concentration at the following times. […]

# smiles representation, readout units, Cmax
data = [
    ("CN(C)c1cc(CNCC(C)(C)C)c(O)c2c1C[C@H]1C[C@H]3[C@H](N(C)C)C(O)=C(C(N)=O)C(=O)[C@@]3(O)C(O)=C1C2=O", "ng/mL", 1490),
]

---

experiment: Phase 1b study in female adults with cystitis, plasma PK; assay type: in vivo, human; conditions: female, human, plasma, oral, 450 mg, plasma, Day 5, PO450; read-out: Tmax, Geo. Mean
experimental readout: Tmax (h)

# smiles representation, experimental readout, reported
records = [
    ("CN(C)c1cc(CNCC(C)(C)C)c(O)c2c1C[C@H]1C[C@H]3[C@H](N(C)C)C(O)=C(C(N)=O)C(=O)[C@@]3(O)C(O)=C1C2=O", "Tmax", 2.64),
]

---

test: Phase 1b study in female adults with cystitis, plasma PK; assay type: in vivo, human; conditions: female, human, plasma, intravenous, 200 mg, plasma, Day 1, IV_PO300; read-out: Cmax, Median
experimental readout: Cmax (ng/mL)

# molecule, reported
rows = [
    ("CN(C)c1cc(CNCC(C)(C)C)c(O)c2c1C[C@H]1C[C@H]3[C@H](N(C)C)C(O)=C(C(N)=O)C(=O)[C@@]3(O)C(O)=C1C2=O [Compound 1]", 1850),
]

---

Assay: Phase 1b study in female adults with cystitis, urine PK
Type: in vivo, human
Conditions: female, human, urine and plasma, oral, 300 mg, Day 5, IV_PO300; read-out: Renal CL, Median (converted)
Procedure: Urine was collected, the volume recorded, and analyzed for Compound 1 concentration at the following times: • Day 1 to 2: pooled total urine 0 to 4, 4 to 8, 8 to 12, and 12-24 hours after the t=0 h dose; Collection of the 12 to 24 h sample should be completed prior to the t=24 h dose on Day 2; • Day 5 to 6: pooled total urine 0 to 4, 4 to 8, 8 to 12, and 12-24 hours after the t=96 h dose; Urine was pooled during the intervals above. […]

# smiles representation, clearance [mL/min]
rows = [
    ("CN(C)c1cc(CNCC(C)(C)C)c(O)c2c1C[C@H]1C[C@H]3[C@H](N(C)C)C(O)=C(C(N)=O)C(=O)[C@@]3(O)C(O)=C1C2=O", 44),
]
